Target: purified HLA DRB1*1302 (human)
Assay: competition with 125I-labelled peptide for purified HLA
A collection of binders and their measured IC50
Kindly provide the numeric value in nM only, without the unit symbol.

Solved cases below.
{"binder": "ILSIYSTVASSLALAI (modifications not checked) [Flu.HA.532 peptide …]", "numeric.result": 7.6}
{"binder": "SLMLQIGNMISIWVSHS (modifications not checked) [Flu.NA.21 peptide …]", "numeric.result": 44}
{"binder": "IYQILSIYSTVASSLA (modifications not checked) [Flu.HA.529 peptide …]", "numeric.result": 13}

--- query ---
Memo: YIQMCTELKLSDYEG (modifications not checked) [Flu.NP.43 peptide …] , reported IC50: 15400
